# TEST SUMMARY: Cytotoxicity against human HaCaT cells assessed as inhibition of cell growth
# Format: toxicity, cell-based
pIC50: −log10 of the molar value.

# COMPOUND, pIC50
rows = [
    ("CCN1CCN(C(C)C(=O)N(C)c2ccc(N/C(=C3\\C(=O)Nc4cc(Cl)ccc43)c3ccccc3)cc2)CC1 (racemic)", "< 5.00"),
    ("COC(=O)c1ccc2c(c1)NC(=O)/C2=C(\\Nc1ccc(N(C)C(=O)CN2CCN(C)CC2)cc1)c1ccccc1", "< 5.00"),
]

* * *

# System: Osimertinib-resistant NCI-H1975 cell
# TEST SUMMARY: cells
# CONDITION DETAILS: Homo sapiens, 72 h
pIC50: −log10 of the molar value.

# COMPOUND, RELATION SIGN, pIC50
records = [
    ("CCN1CCN(C(C)C(=O)N(C)c2ccc(N/C(=C3\\C(=O)Nc4cc(Cl)ccc43)c3ccccc3)cc2)CC1 (racemic)", "=", 5.95),
    ("COC(=O)c1ccc2c(c1)NC(=O)/C2=C(\\Nc1ccc(N(C)C(=O)CN2CCN(C)CC2)cc1)c1ccccc1", "<", 5.00),
]

* * *

# TEST SUMMARY: Cytotoxicity against human HEK293 cells assessed as inhibition of cell growth
# Format: toxicity, cell-based
pIC50: −log10 of the molar value.

# COMPOUND, RELATION SIGN, pIC50
measured = [
    ("CCN1CCN(C(C)C(=O)N(C)c2ccc(N/C(=C3\\C(=O)Nc4cc(Cl)ccc43)c3ccccc3)cc2)CC1 (racemic)", "<", 5.00),
    ("COC(=O)c1ccc2c(c1)NC(=O)/C2=C(\\Nc1ccc(N(C)C(=O)CN2CCN(C)CC2)cc1)c1ccccc1", "=", 5.46),
]

* * *

# System: MDA-MB-231
# TEST SUMMARY: cells
# CONDITION DETAILS: Homo sapiens, MDA-MB-231, 72 h
# Description: Antiproliferative activity against human MDA-MB-231 cells assessed as cell viability incubated for 72 hrs by MTT assay

# COMPOUND, IC50
data = [
    ("COC(=O)c1ccc2c(c1)NC(=O)/C2=C(\\Nc1ccc(N(C)C(=O)C(C)N2CCCN(C)CC2)cc1)c1ccccc1 (racemic)", "5.78 µM"),
    ("COC(=O)c1ccc2c(c1)NC(=O)/C2=C(\\Nc1ccc(N(C)C(=O)C(C)N2CCN(C)CC2)cc1)c1ccccc1 (racemic)", "5.34 µM"),
    ("COC(=O)c1ccc2c(c1)NC(=O)/C2=C(\\Nc1ccc(N(C)C(=O)C(C)N2CCSCC2)cc1)c1ccccc1 (racemic)", "> 10 µM"),
    ("CC(C(=O)N(C)c1ccc(N/C(=C2\\C(=O)Nc3cc(Br)ccc32)c2ccccc2)cc1)N1CCSCC1 (racemic)", "> 10 µM"),
    ("CN(C(=O)CN1CCOCC1)c1ccc(N/C(=C2\\C(=O)Nc3cc(Br)ccc32)c2ccccc2)cc1", "> 10 µM"),
    ("COC(=O)c1ccc2c(c1)NC(=O)/C2=C(\\Nc1ccc(N(C)C(=O)CN2CCOCC2)cc1)c1ccccc1", "> 10 µM"),
    ("CC(C(=O)N(C)c1ccc(N/C(=C2\\C(=O)Nc3cc(Cl)ccc32)c2ccccc2)cc1)N1CCC(N(C)C)CC1 (racemic)", "1.98 µM"),
]

* * *

# System: BXPC-3
# TEST SUMMARY: Antiproliferative activity against human BXPC-3 cells cultured as 3D tumor spheroids assessed as cell viability incubated for 7 days by CCK-8 assay
# CONDITION DETAILS: BXPC-3, 168 h
MEASURED QUANTITY: IC50 (nM)

# COMPOUND, VALUE OBSERVED
records = [
    ("CCN1CCN(C(C)C(=O)N(C)c2ccc(N/C(=C3\\C(=O)Nc4cc(Cl)ccc43)c3ccccc3)cc2)CC1 (racemic)", 1620),
]
